- assayedSystem: KRAS(G12D) (Homo sapiens, UniProt P01116, G12D)
- Sequence (P01116 1-185 isoform P01116-2 G12D limits assumed): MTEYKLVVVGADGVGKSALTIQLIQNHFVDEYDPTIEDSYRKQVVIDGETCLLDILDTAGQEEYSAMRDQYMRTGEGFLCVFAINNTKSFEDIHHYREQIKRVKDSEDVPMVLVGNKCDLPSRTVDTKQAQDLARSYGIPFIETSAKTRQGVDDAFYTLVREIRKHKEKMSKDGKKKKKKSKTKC
- assaySummary: KRAS Western Blot Protein Degradation Assay, GP2D
- Format: cell-based
- Design: Cell lines SW1990 and GP2D that express KRAS(G12D); host or cells: GP2D
- appliedConditions: read-out: WB data GP2D DC50; GP2D, KRAS degradation, 24 hr
Counter-ions that a name gives are not always drawn.
readout: DC50

Query: Enter reported DC50 observed with KRAS(G12D) (Homo sapiens, UniProt P01116, G12D) for [2H]C([2H])([2H])Oc1nc(-c2cc(O)cc3ccc(F)c(C#C)c23)c(F)c2nc(OCC3(CN4CCN(CC5CCN(c6ccc7c(c6)CN(C6CCC(=O)NC6=O)C7=O)CC5)CC4)CC3)nc(N3CC4CCC(C3)N4CC(C)C)c12 (stereo not shown)
Result: > 1000 nM

Query: Checklist item: DC50 tested on KRAS(G12D) (Homo sapiens, UniProt P01116, G12D), entry O=CO.[2H]C([2H])([2H])Oc1nc(-c2cc(O)cc3ccc(F)c(C#C)c23)c(F)c2nc(OCC3(CN4CCN(CC5CCN(c6ccc7c(c6)CN(C6CCC(=O)NC6=O)C7=O)CC5)CC4)CC3)nc(N3CC4CCC(C3)N4CCO)c12 (stereo not shown) , value?
Result: < 100 nM

Query: Field: DC50 (KRAS(G12D) (Homo sapiens, UniProt P01116, G12D)). Entry: C#Cc1c(F)ccc2cc(O)cc(-c3ncc4c(N5CC6CCC(C5)N6CC#N)nc(OCC5(CN6CCN(CC7CCN(c8ccc9c(c8)CN(C8CCC(=O)NC8=O)C9=O)CC7)CC6)CC5)nc4c3F)c12 (stereo not shown)
Result: < 100 nM

Query: Please state recorded DC50 (tested on KRAS(G12D) (Homo sapiens, UniProt P01116, G12D)) of C#Cc1c(F)ccc2cc(O)cc(-c3nc(OC)c4c(N5CC6CCC(C5)N6CC#N)nc(OCC5(CN6CCN(CC7CCN(c8ccc9c(c8)CN(C8CCC(=O)NC8=O)C9=O)CC7)CC6)CC5)nc4c3F)c12 (stereo not shown) [Compound 100, formate]
Result: < 100 nM

Query: Form field - read-out: DC50; system: KRAS(G12D) (Homo sapiens, UniProt P01116, G12D); submitted item: O=CO.[2H]C([2H])([2H])Oc1nc(-c2cc(O)cc3ccc(F)c(C#C)c23)c(F)c2nc(OCC3(CN4CCN(CC5CCN(c6ccc7c(c6)CN(C6CCC(=O)NC6=O)C7=O)CC5)CC4)CC3)nc(N3CC4CCC(C3)N4CC#N)c12 (stereo not shown)
Result: < 100 nM

Query: Request body: readout DC50, system KRAS(G12D) (Homo sapiens, UniProt P01116, G12D), query [2H]C([2H])([2H])Oc1nc(-c2cc(O)cc3ccc(F)c(C#C)c23)c(F)c2nc(OCC3(CN4CCN(CC5CCN(c6ccc7c(c6)CN(C6CCC(=O)NC6=O)C7=O)CC5)CC4)CC3)nc(N3CC4CCC(C3)N4CC(F)(F)F)c12 (stereo not shown) . Return the value.
Result: > 1000 nM

Query: Form field - read-out: DC50; system: KRAS(G12D) (Homo sapiens, UniProt P01116, G12D); submitted item: O=CO.[2H]C([2H])([2H])Oc1nc(-c2cc(O)cc3ccc(F)c(C#C)c23)c(F)c2nc(OCC3(CN4CCN(CC5CCN(c6ccc7c(c6)CN(C6CCC(=O)NC6=O)C7=O)CC5)CC4)CC3)nc(N3CC4CCC(C3)N4CCC#N)c12 (stereo not shown)
Result: > 1000 nM
